The entries below come with measured activation values attached.
- Experimental Protocol: primary screen for activators of insulin secretion dependent on glucose, INS-1E cells, GLuc reporter luminescence (AID 743287);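 also: 0% = median of neutral control wells and 100% = median of IBMX positive control wells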
- Measurement Conditions: INS-1E GLuc reporter insulin secretion, 2-3 h, at 16.6 µM, active compounds read high
About 2,300 (0.62%) of roughly 370,000 compounds were called active. The list comes from a sample in which actives are over-represented; it also holds close analogues and randomly drawn compounds.

{"Compound": "COc1cccc(CN2CCCC(C(=O)c3ccccc3SC)C2)c1O (stereo unspecified)", "activation, %": -0.167}
{"Compound": "C/C=C/c1ccc(C2[C@@H]3CN(S(C)(=O)=O)C[C@H]2N3)cc1 (stereo partly specified)", "activation, %": -6.54}
{"Compound": "CC(Cc1ccccc1)NCCC(c1ccccc1)c1ccccc1 (stereo unspecified)", "activation, %": 182}
{"Compound": "COc1ccc(C(=O)C2CCCN(Cc3ccc(C)s3)C2)cc1OC (stereo unspecified)", "activation, %": 53.8}
{"Compound": "COC(=O)C[C@@H]1CC[C@@H]2NC[C@@H](O)COC[C@H]2O1", "activation, %": 7.25}
{"Compound": "CC(Cc1ccccc1)NC=O (stereo unspecified)", "activation, %": 3.77}

----------
- Experimental Protocol: primary screen for activators of insulin secretion dependent on glucose, INS-1E cells, GLuc reporter luminescence (AID 743287);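 also: 0% = median of neutral control wells and 100% = median of IBMX positive control wells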
- Measurement Conditions: INS-1E GLuc reporter insulin secretion, 2-3 h, at 16.6 µM, active compounds read high
Among all 370,000 compounds or so, about 2,300 (0.62%) were called active. Many of the other results were omitted from the sample, so actives are more common in it than they were.
Label Satisfied when activation is at or above 10%; anything below gets Not satisfied.

{"Molecule": "COc1ccccc1CN1[C@@H](CO)[C@@H](c2ccccc2)C12CN(C(=O)Cc1ccccc1)C2", "Group": "Not satisfied"}
{"Molecule": "COc1cccc(-c2ccc3n(c2=O)C[C@H]2[C@H](CO)[C@@H](C(=O)O)[C@@H]3N2C(=O)c2cnccn2)c1", "Group": "Satisfied"}
{"Molecule": "CCN(CC)C(=O)[C@@H]1C=C2c3cccc4[nH]c(Br)c(c34)C[C@H]2N(C)C1", "Group": "Satisfied"}
{"Molecule": "CC(C)Nc1nc(Cl)nc(NC(C)C)n1", "Group": "Satisfied"}
{"Molecule": "Clc1ccc([C@@H]2CC3CCC2N3)cn1 (some centres not stated)", "Group": "Not satisfied"}
{"Molecule": "CCCCCCCCCCCCn1ccc(=N)cc1", "Group": "Satisfied"}
{"Molecule": "FC(F)(F)CN1CC2NC(C1)C2c1ccc(Br)cc1 (configuration not stated)", "Group": "Not satisfied"}
